Values from patent US12662462B2

test: Solubility experiment in water; assay type: physicochemical; settings: thermodynamic from solid; 37° C. water, shaking for 24 h; read-out: Concentration of compound having formula (I) in saturated aqueous solution
reported endpoint: solubility thermodynamic at 24 h (µg/mL)
Please respond with the number in µg/mL and leave the unit unwritten.

## Input I would be grateful if you could share the reported solubility thermodynamic at 24 h for CN1CCC(=C(F)c2cccc(NC(=O)c3c(F)cc(F)cc3F)n2)CC1 .
## Output 2590

###

Test: Pharmacokinetic experiment in Beagle dogs
Format: in vivo, Beagle dog
Details: dog, plasma, oral capsules, 5 mg/kg
Procedure: The inventors conducted a pharmacokinetic evaluation of the salt or its crystal form of the present invention in Beagle dogs. The test sample (i.e., the salt or crystal form of the present invention, or the compound having formula (I) of the present invention) was filled into capsules for oral administration. The animals were fasted for 12 h before the administration, and they had free drinking water. Capsules containing test samples were administered orally at a dose of 5 mg/kg. […]
reported endpoint: AUC(0-t)
Hey, just the number and the unit after it is fine.

## Input I would be grateful if you could share the reported AUC(0-t) for CN1CCC(=C(F)c2cccc(NC(=O)c3c(F)cc(F)cc3F)n2)CC1 .
## Output 117 ng·h/mL
